- TARGET: recombinant IRAK-4 kinase (Homo sapiens, UniProt Q9NWZ3)
- Construct: purchased Millipore, USA
- Sequence (Q9NWZ3 whole entry): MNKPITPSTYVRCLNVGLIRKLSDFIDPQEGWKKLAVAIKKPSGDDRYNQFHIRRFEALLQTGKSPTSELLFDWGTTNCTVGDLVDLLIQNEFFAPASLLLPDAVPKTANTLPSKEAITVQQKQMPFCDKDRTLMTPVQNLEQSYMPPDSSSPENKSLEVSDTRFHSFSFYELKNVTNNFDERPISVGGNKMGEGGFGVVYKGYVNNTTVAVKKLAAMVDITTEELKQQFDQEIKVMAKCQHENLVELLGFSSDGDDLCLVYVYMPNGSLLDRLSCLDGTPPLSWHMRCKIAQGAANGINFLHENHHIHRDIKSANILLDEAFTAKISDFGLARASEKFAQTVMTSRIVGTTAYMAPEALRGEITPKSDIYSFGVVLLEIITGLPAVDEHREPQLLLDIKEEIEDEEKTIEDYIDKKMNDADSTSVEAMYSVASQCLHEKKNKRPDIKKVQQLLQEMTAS
- PROTOCOL_DESCRIPTION: IRAK-4 Biochemical Assay (TR-FRET, percent inhibition)
- MEASUREMENT_CONTEXT: read-out: % inhibition of IRAK-4 @ 1 μM, compound at 1 μM; TR-FRET, 20 μM ATP, 100 nM Biotin Histone H3
PROPERTY_LABEL: inhibition at 1 µM (%)
Use % as the unit, but write only the number.

Example molecules with recorded inhibition at 1 µM:
# MOLECULE, DISPLAY_UNIT, VALUE_REPORTED
rows = [
    ("COC(=O)C1CN(c2cccc(C(=O)Nc3cc4sc(N5CCOCC5)nc4nc3N3CCCCC3)n2)C(=O)N1 (stereo not shown)", "%", 100),
    ("Nc1cc(-c2cccc(C(=O)Nc3cc4sc(N5CCOCC5)nc4nc3N3CCCCC3)n2)ccn1", "%", 98),
    ("NCC(=O)OC1CCN(c2cccc(C(=O)Nc3cc4sc(N5CCOCC5)nc4nc3N3CCOCC3)n2)C1 (stereo not shown)", "%", 96),
]

// below: inhibition at 1 µM requested for another molecule
Inquiry: I would be grateful if you could share the reported inhibition at 1 µM for O=C(Nc1cc2sc(N3CCOCC3)nc2nc1N1CCCCC1)c1cccc(-n2cnc(CO)c2)n1 .
Reply text: 101
